settings: 298.15 K; 101.33 kPa; Liquid; Vibrating tube method
METRIC: mass density (kg/m3)
All answers are understood in kg/m3, so give the number only.

Ask: Item c1ccccc1 has what recorded mass density?
Result: 873.57

----------
Measured refractive index of individual entries
experiment: refractive index (Na D-line) (dimensionless); details: 298.15 K; 101.33 kPa; Liquid; Standard Abbe refractometry
Answer using only a numeral; do not append any unit.

Recorded refractive index, per entry:
COMPOUND	RECORDED NUMBER
c1ccccc1 [benzene]	1.49764
COC(=O)OC [dimethyl carbonate]	1.36654
Cc1ccccc1 [toluene]	1.49397

Ask: Item CCO [ethanol] has what recorded refractive index?
Result: 1.35928

----------
Measured mass density of individual entries
conditions: 298.15 K; 101.33 kPa; Liquid; Vibrating tube method
± gives the expanded uncertainty stated by the source.
Answer format: number, then unit.

MOLECULE	mass density
CCO	785.33 ± 0.39 kg/m3
COC(=O)OC [dimethyl carbonate]	1063.04 ± 0.51 kg/m3

Now for another entry.
Ask: Item Cc1ccccc1 has what recorded mass density?
Result: 862.19 ± 0.42 kg/m3
